Test system: MOLM1 and UCSD/AML1 (averaged)
Assay: cell viability relative to DMSO control (POC); higher = less growth inhibition
Settings: 1 µM; 72 h
Counter-ions that a name gives are not always drawn. About 180 (8.6%) of roughly 2,100 compounds showed an effect of 50% or more. The full list was thinned out, with strong results kept by preference.
cell viability by entry:
Express your answer in %, writing the number without its unit.

[[record]]
compound = "CN1CCN(c2ccc3nc(-c4c(N)c5c(F)cccc5[nH]c4=O)[nH]c3c2)CC1 [Dovitinib (TKI-258)]"
reading_unit = "%"
recorded_result = 26.7

[[record]]
compound = "CC12CCC3C(CC3(C)C)C(C)(CCC1=O)O2 (centres undefined)"
reading_unit = "%"
recorded_result = 103

[[record]]
compound = "Clc1ccc(Nc2nnc(Cc3ccncc3)c3ccccc23)cc1 [Vatalanib dihydrochloride (PTK787)]"
reading_unit = "%"
recorded_result = 44.6

[[record]]
compound = "CC[C@@H]1C(=O)N(C)c2cnc(Nc3ccc(C(=O)N[C@H]4CC[C@H](N5CCN(CC6CC6)CC5)CC4)cc3OC)nc2N1C(C)C [BI6727 (Volasertib)]"
reading_unit = "%"
recorded_result = 14.5


Data request: Entry `NC1(C(=O)O)CCCC1` , system MOLM1 and UCSD/AML1 (averaged): what cell viability was measured?
Data returned: 93.7

Data request: Entry `COc1cc(C)c(C(=O)Oc2cc(C)c(C(=O)O)c(O)c2C)c(OC)c1C` , system MOLM1 and UCSD/AML1 (averaged): what cell viability was measured?
Data returned: 109

Data request: Entry `C=CC(=O)N1CCC[C@@H](n2nc(-c3ccc(Oc4ccccc4)cc3)c3c(N)ncnc32)C1` , system MOLM1 and UCSD/AML1 (averaged): what cell viability was measured?
Data returned: 60.3

Data request: Entry `COc1cc(OC2CCN(C)CC2)ccc1Nc1ncc2c(n1)n(C1CCCC1)c(=O)n2C` , system MOLM1 and UCSD/AML1 (averaged): what cell viability was measured?
Data returned: 70.8

Data request: Entry `COc1ccc2c(c1OC)OC[C@@H](c1ccc(OC)c(OC)c1OC)C2` , system MOLM1 and UCSD/AML1 (averaged): what cell viability was measured?
Data returned: 113

====

cell viability by entry:
Tested on: MOLM1 and UCSD/AML1 (averaged)
Experiment: cell viability relative to DMSO control (POC); higher = less growth inhibition
Settings: 1 µM; 72 h
Among all 2,100 compounds or so, about 180 (8.6%) showed an effect of 50% or more. The entries come from a sample that favours strong results as a whole.
Express your answer in %, writing the number without its unit.

[[record]]
compound = "CC1(C)O[C@H]2[C@H](O)C[C@](O)(C(N)=O)C[C@H]2O1"
recorded_result = 94.1

[[record]]
compound = "C[C@@H]1O[C@@H](O[C@H]2[C@H](Oc3cc(O)c4c(=O)cc(-c5ccc(O)cc5)oc4c3)O[C@H](CO)[C@@H](O)[C@@H]2O)[C@H](O)[C@H](O)[C@H]1O"
recorded_result = 110

[[record]]
compound = "C/C1=C\\CCC(=O)C2CC(C)(C)C2CC1 (stereo not drawn)"
recorded_result = 93.3

[[record]]
compound = "CN(C)c1ccc(C(=C2C=CC(=[N+](C)C)C=C2)c2ccc(N(C)C)cc2)cc1"
recorded_result = 0.942

[[record]]
compound = "C=CCNC1=C2C[C@@H](C)C[C@H](OC)[C@H](O)[C@@H](C)/C=C(\\C)[C@H](OC(N)=O)[C@@H](OC)/C=C\\C=C(/C)C(=O)NC(=CC1=O)C2=O"
recorded_result = 29.1


Data request: I have this compound here, `N#Cc1c(O)c2c(-c3ccc(-c4ccccc4O)cc3)csc2[nH]c1=O` , and I need its recorded cell viability.
Data returned: 97.3

Data request: I have this compound here, `O=C(O[C@@H]1Cc2c(O)cc(O)cc2O[C@@H]1c1cc(O)c(=O)c2c(O)c(O)cc([C@H]3Oc4cc(O)cc(O)c4C[C@H]3OC(=O)c3cc(O)c(O)c(O)c3)c2c1)c1cc(O)c(O)c(O)c1` , and I need its recorded cell viability.
Data returned: 108

Data request: I have this compound here, `COc1c(C)cnc(Cn2cnc3c(Cl)nc(N)nc32)c1C` , and I need its recorded cell viability.
Data returned: 4.8

Data request: I have this compound here, `O=C(/C=C/C(=O)Oc1ccccc1C(=O)O)Oc1ccccc1C(=O)O` , and I need its recorded cell viability.
Data returned: 110

Data request: I have this compound here, `O=C(O)CC[C@H]1CC[C@@](c2cc(F)ccc2F)(S(=O)(=O)c2ccc(Cl)cc2)CC1` , and I need its recorded cell viability.
Data returned: 71

Data request: I have this compound here, CC1(C)CC23C(=O)CCC(O)C2(C)CCC13 (stereo not drawn) , and I need its recorded cell viability.
Data returned: 96.7

Data request: I have this compound here, `Nc1ccc(-c2ccc3ncc4ccc(=O)n(-c5cccc(C(F)(F)F)c5)c4c3c2)cn1` , and I need its recorded cell viability.
Data returned: 10

Data request: I have this compound here, `C#Cc1cccc(Nc2ncnc3cc(OC)c(OCCCCCCC(=O)NO)cc23)c1` , and I need its recorded cell viability.
Data returned: 22.2

====

Test system: MOLM1 and UCSD/AML1 (averaged)
Experiment: cell viability relative to DMSO control (POC); higher = less growth inhibition
Settings: 1 µM; 72 h
About 180 (8.6%) of roughly 2,100 compounds showed an effect of 50% or more. The list comes from a sample in which strong results are over-represented; it also holds close analogues and randomly drawn compounds.
Readout type: cell viability (%)
Express your answer in %, writing the number without its unit.

[[record]]
molecule = "CO[C@H]1O[C@H](CO)C(O[C@@H]2OC(C(=O)O)[C@@H](O[C@H]3O[C@H](COS(=O)(=O)O)C(O[C@@H]4OC(C(=O)O)[C@@H](O[C@H]5O[C@H](CO)C(O[C@@H]6OC(C(=O)O)[C@@H](O[C@H]7O[C@H](COS(=O)(=O)O)C(O[C@@H]8OC(C(=O)O)=C[C@H](O)C8OS(=O)(=O)O)[C@H](O)[C@H]7NC(C)=O)[C@H](O)[C@H]6O)[C@H](O)[C@H]5NC(C)=O)[C@H](O)[C@H]4O)[C@H](O)[C@H]3NC(C)=O)[C@H](O)[C@H]2O)[C@H](O)[C@H]1NC(C)=O (stereo not given in full)"
recorded_result = 86.8

[[record]]
molecule = "COc1c(O)cc2oc3cc(O)c(CC=C(C)C)c(O)c3c(=O)c2c1CC=C(C)C"
recorded_result = 95.2

[[record]]
molecule = "O=C(O)c1ccc2c(c1)nc(Nc1cccc(Cl)c1)c1ccncc12 [cx-4945 (Silmitasertib)]"
recorded_result = 80.5

[[record]]
molecule = "CC(C)=CCCC1(C)C=Cc2c(O)c3c(c(CC=C(C)C)c2O1)OC12C(=CCCC1C(C)(C)O[C@@]2(C/C=C(\\C)C(=O)O)C(=O)O)C3=O (stereo not given in full)"
recorded_result = 103


Here is the next item to consider.
Data request: I have this molecule here, COc1cc(OC)c2c(c1)OC(c1ccccc1)CC2=O (stereo not given) , and I need its recorded cell viability.
Data returned: 105

====

Tested on: MOLM1 and UCSD/AML1 (averaged)
Assay: cell viability relative to DMSO control (POC); higher = less growth inhibition
Details: 1 µM; 72 h
About 180 (8.6%) of roughly 2,100 compounds showed an effect of 50% or more. Only a selection was taken, and strong results are over-represented in it overall.
So basically, the class depends on measured cell viability, and the ranges are low end (below 7%), middle (7% to below 90%), high end (90% or more)

Worked examples follow.
[[record]]
molecule = "CC1(C)C(=O)[C@H]2C[C@]3(O)C4=CC(=O)O[C@@H](c5ccoc5)[C@@]4(C)CCC3[C@](C)(C2=O)[C@H]1CC(=O)O (some centres undefined)"
experimental_target = "MOLM1 and UCSD/AML1 (averaged)"
class_assignment = "high end"

[[record]]
molecule = "CC1(C)CCC(c2ccc(Cl)cc2)=C(CN2CCN(c3ccc(C(=O)NS(=O)(=O)c4ccc(N[C@H](CCN5CCOCC5)CSc5ccccc5)c(S(=O)(=O)C(F)(F)F)c4)cc3)CC2)C1"
experimental_target = "MOLM1 and UCSD/AML1 (averaged)"
class_assignment = "low end"

[[record]]
molecule = "CC[C@@]1(O)C(=O)OCc2c1cc1n(c2=O)Cc2cc3cc(O)ccc3nc2-1"
experimental_target = "MOLM1 and UCSD/AML1 (averaged)"
class_assignment = "middle"

[[record]]
molecule = "Nc1nc(=O)c2[nH]c(=O)cnc2[nH]1"
experimental_target = "MOLM1 and UCSD/AML1 (averaged)"
class_assignment = "high end"

[[record]]
molecule = "CC(=O)O[C@H]1C[C@@H](OC(C)=O)C(C)(C)[C@@H]2C[C@@H](OC(C)=O)[C@@]3(C)C4=CC(=O)O[C@@H](c5ccoc5)[C@]4(C)CC[C@@H]3[C@@]12C"
experimental_target = "MOLM1 and UCSD/AML1 (averaged)"
class_assignment = "high end"

[[record]]
molecule = "CC(=O)c1ccc[nH]1"
experimental_target = "MOLM1 and UCSD/AML1 (averaged)"
class_assignment = "high end"


Data request: # bin lookup: classify CCc1c2c(nc3ccc(OC(=O)N4CCC(N5CCCCC5)CC4)cc13)-c1cc3c(c(=O)n1C2)COC(=O)[C@]3(O)CC [Irinotecan] by its cell viability
Data returned: middle

Data request: # bin lookup: classify CC(C=CC(=O)NO)=CC(C)C(=O)c1ccc(N(C)C)cc1 (centres undefined) by its cell viability
Data returned: low end
